Numbers sourced from patent US4075332A.

experiment: in vivo; conditions: rat, po
endpoint: LD50 at 336 h

Sample CCOP(=S)(OCC)SCC(C)SC (stereo not drawn) [reference compound] ; LD50 at 336 h observed: 25 to 50 mg/kg

Sample CCOP(=S)(OCC)SCC(C)SCC (stereo not drawn) [reference compound] ; LD50 at 336 h observed: 25 to 50 mg/kg

Sample CCCSP(=O)(OCC)SCCS(C)(=O)=O (stereo not drawn) ; LD50 at 336 h observed: > 100 mg/kg
